Measured Papp B→A at 1.5 h, 10 µM, listed per entry.
- assay.details: Apparent permeability from basolateral to apical side of human Caco2 cells at 10 uM after 90 mins by LC/MS/MS analysis
- Type: ADME, cell-based
- reported.conditions: Caco-2
Write down the numeric answer in ×10⁻⁶ cm/s and omit the unit.

| compound | property.label | unit.annotation | endpoint.value |
| --- | --- | --- | --- |
| COc1ncc(-c2cnc3nc(N)nc(C)c3c2)cc1NS(=O)(=O)c1ccc(C#N)cc1 | Papp B→A at 1.5 h, 10 µM | ×10⁻⁶ cm/s | 14 |

Now consider a different compound.
For this compound ( COc1ccc(-c2cc3c(C)nc(N)nc3n([C@H]3CC[C@H](OCCO)CC3)c2=O)cn1 [PF-04691502] ), measured Papp B→A at 1.5 h, 10 µM is 32.5

* * *

- system: Phosphatidylinositol 4,5-bisphosphate 3-kinase catalytic subunit alpha isoform (Homo sapiens)
- Sequence (P42336 whole entry, canonical isoform): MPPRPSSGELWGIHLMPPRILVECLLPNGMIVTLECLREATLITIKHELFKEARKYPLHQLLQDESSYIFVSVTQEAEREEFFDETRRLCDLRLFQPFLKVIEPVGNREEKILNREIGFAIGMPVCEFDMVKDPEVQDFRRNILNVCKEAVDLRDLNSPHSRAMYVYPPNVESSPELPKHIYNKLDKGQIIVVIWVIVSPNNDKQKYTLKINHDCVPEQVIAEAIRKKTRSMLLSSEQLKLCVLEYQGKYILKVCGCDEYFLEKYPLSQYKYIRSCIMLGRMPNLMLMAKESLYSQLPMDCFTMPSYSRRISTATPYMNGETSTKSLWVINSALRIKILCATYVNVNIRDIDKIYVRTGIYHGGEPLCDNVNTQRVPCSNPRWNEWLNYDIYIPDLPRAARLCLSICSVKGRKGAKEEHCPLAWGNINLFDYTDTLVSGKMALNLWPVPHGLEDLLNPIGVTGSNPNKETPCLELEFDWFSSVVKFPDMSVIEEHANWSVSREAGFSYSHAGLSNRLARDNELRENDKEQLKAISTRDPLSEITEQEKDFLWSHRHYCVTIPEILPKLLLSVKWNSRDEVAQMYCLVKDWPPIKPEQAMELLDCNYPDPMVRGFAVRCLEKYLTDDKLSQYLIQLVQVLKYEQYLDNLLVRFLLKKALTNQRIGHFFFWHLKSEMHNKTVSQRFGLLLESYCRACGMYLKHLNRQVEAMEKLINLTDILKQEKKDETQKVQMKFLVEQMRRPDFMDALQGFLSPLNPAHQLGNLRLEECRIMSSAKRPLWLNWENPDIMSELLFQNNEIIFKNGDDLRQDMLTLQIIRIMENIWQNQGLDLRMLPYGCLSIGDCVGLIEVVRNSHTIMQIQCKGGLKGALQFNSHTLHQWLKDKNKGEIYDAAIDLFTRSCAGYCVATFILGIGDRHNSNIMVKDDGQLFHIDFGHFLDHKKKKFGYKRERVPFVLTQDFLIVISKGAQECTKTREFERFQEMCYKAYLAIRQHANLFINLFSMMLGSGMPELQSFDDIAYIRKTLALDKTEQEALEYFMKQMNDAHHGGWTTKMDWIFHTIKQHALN
- assay.details: Inhibition of PI3Kalpha (unknown origin) using PIP2/PS as substrate preincubated for 15 mins before substrate addition by luciferase-based luminescence assay
property.label: IC50 (nM)
Write down the numeric answer in nM and omit the unit.

Use the examples below as a reference point.
| smiles.data | unit.annotation | IC50 |
| --- | --- | --- |
| COc1ncc(-c2cnc3nc(N)nc(C)c3c2)cc1NS(=O)(=O)c1ccc(Cl)s1 | nM | 6.87 |
| COc1ncc(-c2cnc3nc(N)nc(C)c3c2)cc1NS(=O)(=O)C1CC1 | nM | 55.6 |
| COc1ccc(S(=O)(=O)Nc2cc(-c3cnc4nc(N)nc(C)c4c3)cnc2OC)cc1 | nM | 67 |
| COc1ncc(-c2cnc3nc(N)nc(C)c3c2)cc1NS(=O)(=O)c1cccs1 | nM | 23.3 |
| COc1ccc(-c2cnc3nc(N)nc(C)c3c2)cn1 | nM | 414 |

For this molecule ( COc1ncc(-c2cnc3nc(N)nc(C)c3c2)cc1NS(=O)(=O)c1ccccc1 ), measured IC50 is 63.1

For this molecule ( Cc1nc(N)nc2ncc(-c3cnc4[nH]nc(NS(=O)(=O)c5ccc(F)cc5F)c4c3)cc12 ), measured IC50 is 82.4

For this molecule ( COc1ncc(-c2cnc3nc(N)nc(C)c3c2)cc1N ), measured IC50 is 632

For this molecule ( COc1ncc(-c2cnc3nc(N)nc(C)c3c2)cc1NS(=O)(=O)c1ccc(C#N)cc1 ), measured IC50 is 2.82

For this molecule ( COc1ncc(-c2cnc3nc(N)nc(C)c3c2)cn1 ), measured IC50 is 218

For this molecule ( COc1ncc(-c2cnc3nc(N)nc(C)c3c2)cc1NS(=O)(=O)c1cccnc1 ), measured IC50 is 7.82

* * *

- assay.details: Antiproliferative activity against human SKOV3 cells after 3 days by CellTiter-Glo assay
- reported.conditions: SK-OV-3, 72 h
property.label: IC50 (µM)
Write down the numeric answer in µM and omit the unit.

| smiles.data | unit.annotation | endpoint.value |
| --- | --- | --- |
| COc1ccc(-c2cc3c(C)nc(N)nc3n([C@H]3CC[C@H](OCCO)CC3)c2=O)cn1 | µM | 0.29 |

For this molecule ( COc1ncc(-c2cnc3nc(N)nc(C)c3c2)cc1NS(=O)(=O)c1ccc(C#N)cc1 ), measured IC50 is 9.15
